Values were extracted from the supplement of paper PMC10307832.

test system: NCI-H1915; assay: relative viability (nuclei count vs DMSO), 5 days (fraction); higher = more cells survive; settings: first compound 0.253 µM
PARAMETER: relative viability

• O=c1[nH]c2ccccc2n1C1CCN(CCCC(c2ccc(F)cc2)c2ccc(F)cc2)CC1 [Pimozide] + O=C(c1cc(Cc2n[nH]c(=O)c3ccccc23)ccc1F)N1CCN(C(=O)C2CC2)CC1 [Olaparib] (partner 8 µM) = 0.241
• O=c1[nH]c2ccccc2n1C1CCN(CCCC(c2ccc(F)cc2)c2ccc(F)cc2)CC1 [Pimozide] + Cc1cc(Nc2cc(N3CCN(C)CC3)nc(Sc3ccc(NC(=O)C4CC4)cc3)n2)n[nH]1 [Tozasertib] (partner 0.1 µM) = 0.383
• O=c1[nH]c2ccccc2n1C1CCN(CCCC(c2ccc(F)cc2)c2ccc(F)cc2)CC1 [Pimozide] + Nc1ncn([C@H]2C[C@H](O)[C@@H](CO)O2)c(=O)n1 [Decitabine] (partner 2 µM) = 0.248

====

test system: EPLC-272H; test: relative viability (nuclei count vs DMSO), 5 days (fraction); higher = more cells survive; conditions: first compound 0.04 µM
Rule: relative viability below 0.4 gives 1, anything at or above gives -1.

• Cc1sc2c(c1C)C(c1ccc(Cl)cc1)=N[C@@H](CC(=O)OC(C)(C)C)c1nnc(C)n1-2 [JQ1] + CS(=O)(=O)N1CCN(Cc2cc3nc(-c4cccc5[nH]ncc45)nc(N4CCOCC4)c3s2)CC1 [Pictilisib] (partner 1 µM) = 1
• Cc1sc2c(c1C)C(c1ccc(Cl)cc1)=N[C@@H](CC(=O)OC(C)(C)C)c1nnc(C)n1-2 [JQ1] + N=C(N)NC(=N)NCCc1ccccc1 [Phenformin] (partner 250 µM) = 1
• Cc1sc2c(c1C)C(c1ccc(Cl)cc1)=N[C@@H](CC(=O)OC(C)(C)C)c1nnc(C)n1-2 [JQ1] + CCNC(=O)c1noc(-c2cc(C(C)C)c(O)cc2O)c1-c1ccc(CN2CCOCC2)cc1 [Luminespib] (partner 0.01 µM) = -1
• Cc1sc2c(c1C)C(c1ccc(Cl)cc1)=N[C@@H](CC(=O)OC(C)(C)C)c1nnc(C)n1-2 [JQ1] + COc1cc2c(Oc3ccc(NC(=O)C4(C(=O)Nc5ccc(F)cc5)CC4)cc3F)ccnc2cc1OCCCN1CCOCC1 [Foretinib] (partner 0.25 µM) = -1
• Cc1sc2c(c1C)C(c1ccc(Cl)cc1)=N[C@@H](CC(=O)OC(C)(C)C)c1nnc(C)n1-2 [JQ1] + Nc1nc2[nH]cc(CCc3ccc(C(=O)N[C@@H](CCC(=O)O)C(=O)O)cc3)c2c(=O)[nH]1 [Pemetrexed] (partner 0.2 µM) = 1
• Cc1sc2c(c1C)C(c1ccc(Cl)cc1)=N[C@@H](CC(=O)OC(C)(C)C)c1nnc(C)n1-2 [JQ1] + Nc1ncn([C@H]2C[C@H](O)[C@@H](CO)O2)c(=O)n1 [Decitabine] (partner 2 µM) = 1

====

system: RERF-LC-KJ; experiment: relative viability (nuclei count vs DMSO), 5 days (fraction); higher = more cells survive; settings: first compound 1.265 µM
PARAMETER: relative viability

* Cc1sc2c(c1C)C(c1ccc(Cl)cc1)=N[C@@H](CC(=O)OC(C)(C)C)c1nnc(C)n1-2 [JQ1] + NC(=O)Nc1cc(-c2cccc(F)c2)sc1C(=O)N[C@H]1CCCNC1 [AZD7762] (partner 0.2 µM) | 0.816
* Cc1sc2c(c1C)C(c1ccc(Cl)cc1)=N[C@@H](CC(=O)OC(C)(C)C)c1nnc(C)n1-2 [JQ1] + O=C(CCCCCCC(=O)Nc1ccccc1)NO [Vorinostat] (partner 1 µM) | 0.407
* Cc1sc2c(c1C)C(c1ccc(Cl)cc1)=N[C@@H](CC(=O)OC(C)(C)C)c1nnc(C)n1-2 [JQ1] + Nc1nc2[nH]cc(CCc3ccc(C(=O)N[C@@H](CCC(=O)O)C(=O)O)cc3)c2c(=O)[nH]1 [Pemetrexed] (partner 0.2 µM) | 0.33
* Cc1sc2c(c1C)C(c1ccc(Cl)cc1)=N[C@@H](CC(=O)OC(C)(C)C)c1nnc(C)n1-2 [JQ1] + Cc1cc(Nc2cc(N3CCN(C)CC3)nc(Sc3ccc(NC(=O)C4CC4)cc3)n2)n[nH]1 [Tozasertib] (partner 0.1 µM) | 0.222
* Cc1sc2c(c1C)C(c1ccc(Cl)cc1)=N[C@@H](CC(=O)OC(C)(C)C)c1nnc(C)n1-2 [JQ1] + O=C(c1cc(Cc2n[nH]c(=O)c3ccccc23)ccc1F)N1CCN(C(=O)C2CC2)CC1 [Olaparib] (partner 8 µM) | 0.42
* Cc1sc2c(c1C)C(c1ccc(Cl)cc1)=N[C@@H](CC(=O)OC(C)(C)C)c1nnc(C)n1-2 [JQ1] + COc1cc2c(Oc3ccc(NC(=O)C4(C(=O)Nc5ccc(F)cc5)CC4)cc3F)ccnc2cc1OCCCN1CCOCC1 [Foretinib] (partner 0.25 µM) | 0.748
